- Tested on: Phanerochaete chrysosporium
- Test summary: Substrate removal / decolorization by P. chrysosporium culture
- Format: cell-based
- Condition notes: beginning concentration 200 ppm
Readout label: Concentration of substrate after ten days cultivation with P. chrysosporium (ppm)
Express your answer in ppm, writing the number without its unit.

Query smiles: Nc1ccc(N=Nc2ccc(S(=O)(=O)O)cc2)cc1S(=O)(=O)O
Subject of test: Phanerochaete chrysosporium
Assay result: 40.875

Query smiles: Cc1ccc(O)c(N=Nc2ccc(S(=O)(=O)O)cc2)c1
Subject of test: Phanerochaete chrysosporium
Assay result: 29.704

Query smiles: O=S(=O)(O)c1ccc(N=Nc2ccc(O)cc2)cc1
Subject of test: Phanerochaete chrysosporium
Assay result: 33.309

Query smiles: COc1cc(C)cc(N=Nc2ccc(S(=O)(=O)O)cc2)c1O
Subject of test: Phanerochaete chrysosporium
Assay result: 30.075

Query smiles: O=S(=O)(O)c1ccc(N=Nc2ccc(O)c(Cl)c2)cc1
Subject of test: Phanerochaete chrysosporium
Assay result: 28.216

Query smiles: CCc1ccc(O)c(N=Nc2ccc(S(=O)(=O)O)cc2)c1
Subject of test: Phanerochaete chrysosporium
Assay result: 32.044

Quick note, Concentration of substrate after ten days cultivation with P. chrysosporium for COc1ccc(N=Nc2ccc(S(=O)(=O)O)cc2)cc1OC landed at 93.250

Quick note, Concentration of substrate after ten days cultivation with P. chrysosporium for COc1cc(N=Nc2ccc(S(=O)(=O)O)cc2)ccc1O landed at 10.068

Quick note, Concentration of substrate after ten days cultivation with P. chrysosporium for CCN(CC)c1ccc(N=Nc2ccc(S(=O)(=O)O)cc2)cc1 landed at 17.931

Quick note, Concentration of substrate after ten days cultivation with P. chrysosporium for Cc1cc(O)c(N=Nc2ccc(S(=O)(=O)O)cc2)cc1C landed at 10.200

---

Below is a list of entries, each paired with its recorded Oxidation rate of azo dyes, P. chrysosporium Ligninase value.
- Test system: ligninase
- Test summary: Oxidation of dyes by P. chrysosporium ligninase (crude preparation)
- Format: biochemical, Phanerochaete chrysosporium
- Condition notes: crude enzyme, conditions specific for ligninase
Express your answer in μmoles per minute per ml, writing the number without its unit.

Quick note, Oxidation rate of azo dyes, P. chrysosporium Ligninase for O=S(=O)(O)c1ccc(N=Nc2c(O)ccc3ccccc23)cc1 landed at 1.18

Quick note, Oxidation rate of azo dyes, P. chrysosporium Ligninase for COc1cc(N=Nc2ccc(S(=O)(=O)O)cc2)ccc1O landed at 0.72

Quick note, Oxidation rate of azo dyes, P. chrysosporium Ligninase for COc1ccc(N=Nc2ccc(S(=O)(=O)O)cc2)cc1 landed at 0.25

Quick note, Oxidation rate of azo dyes, P. chrysosporium Ligninase for Cc1cc(N=Nc2ccc(S(=O)(=O)O)cc2)cc(C)c1O landed at 0.42

Quick note, Oxidation rate of azo dyes, P. chrysosporium Ligninase for O=S(=O)(O)c1ccc(N=Nc2cc(F)c(O)c(F)c2)cc1 landed at 11.61

Quick note, Oxidation rate of azo dyes, P. chrysosporium Ligninase for Nc1ccc(N=Nc2ccc(S(=O)(=O)O)cc2)cc1S(=O)(=O)O landed at 1.38

Quick note, Oxidation rate of azo dyes, P. chrysosporium Ligninase for CCN(CC)c1ccc(N=Nc2ccc(S(=O)(=O)O)cc2)cc1 landed at 0.75

Quick note, Oxidation rate of azo dyes, P. chrysosporium Ligninase for O=S(=O)(O)c1ccc(N=Nc2ccc(O)c3ccccc23)cc1 landed at 0.23

Quick note, Oxidation rate of azo dyes, P. chrysosporium Ligninase for COc1cc(N=Nc2ccc(N=Nc3ccc(S(=O)(=O)O)cc3)cc2S(=O)(=O)O)ccc1O landed at 0.44

---

Below is a list of entries, each paired with its recorded % Decolorization, P. chrysosporium value.
- Tested on: Phanerochaete chrysosporium
- Test summary: Substrate removal / decolorization by P. chrysosporium culture
- Format: cell-based
- Condition notes: initial concn 300 ppm, 14 days
Express your answer in %, writing the number without its unit.

Compound: Cc1cc(O)c(N=Nc2ccc(S(=O)(=O)O)cc2)cc1C [compound 7]
Assay result: 55

Now for another entry.
Quick note, % Decolorization, P. chrysosporium for O=S(=O)(O)c1ccc2c(N=Nc3ccccc3)c(O)ccc2c1 [compound 19] landed at 87

---

- Test system: S. diastaticus A12
- Type: cell-based
- Condition notes: streptomyces diastaticus a12 culture, 336 h
Readout label: Degradation (%) after Streptomyces cultivation, strain A12
Number first, unit second.

// worked examples, Degradation (%) after Streptomyces cultivation, strain A12 included
Compound: COc1cc(N=Nc2ccc(S(=O)(=O)O)cc2)cc(OC)c1O
Subject of test: S. diastaticus A12
Assay result: 39%

Compound: CCN(CC)c1ccc(N=Nc2ccc(S(=O)(=O)O)cc2)cc1
Subject of test: S. diastaticus A12
Assay result: 1%

Compound: Cc1cc(N=Nc2ccc(S(=O)(=O)O)cc2)cc(C)c1O
Subject of test: S. diastaticus A12
Assay result: 39%

Compound: CCC(C)c1cc(N=Nc2ccc(S(=O)(=O)O)cc2)ccc1O (stereo not shown)
Subject of test: S. diastaticus A12
Assay result: 7%

Compound: O=S(=O)(O)c1ccc(N=Nc2ccc(O)c(Cl)c2)cc1
Subject of test: S. diastaticus A12
Assay result: 1%

Quick note, Degradation (%) after Streptomyces cultivation, strain A12 for COc1cc(N=Nc2ccc(S(=O)(=O)O)cc2)ccc1O landed at 43%

Quick note, Degradation (%) after Streptomyces cultivation, strain A12 for Cc1cc(N=Nc2ccc(S(=O)(=O)O)cc2)ccc1O landed at 3%

---

- Subject of test: horseradish peroxidase type II (Armoracia rusticana, UniProt P00433)
- Sequence (P00433 31-338): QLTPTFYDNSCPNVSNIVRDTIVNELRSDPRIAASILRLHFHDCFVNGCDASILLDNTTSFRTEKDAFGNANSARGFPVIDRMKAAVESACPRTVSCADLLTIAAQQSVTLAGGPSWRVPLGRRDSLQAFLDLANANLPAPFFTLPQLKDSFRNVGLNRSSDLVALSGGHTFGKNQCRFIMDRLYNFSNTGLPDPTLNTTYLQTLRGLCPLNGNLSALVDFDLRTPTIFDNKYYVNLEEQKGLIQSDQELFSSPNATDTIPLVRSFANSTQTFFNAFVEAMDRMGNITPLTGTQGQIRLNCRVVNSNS
- Test summary: Oxidation of azo dyes by horseradish peroxidase preparation
- Assay type: biochemical
- Condition notes: pH 8, 37° C., H2O2
Readout label: Oxidation rate of azo dyes, Horseradish peroxidase (μmoles per minute per ml)
Express your answer in μmoles per minute per ml, writing the number without its unit.

// worked examples, Oxidation rate of azo dyes, Horseradish peroxidase included
Query smiles: Nc1ccc(N=Nc2ccc(S(=O)(=O)O)cc2)cc1
Unit abbrev: μmoles per minute per ml
Assay result: 0.40

Query smiles: COc1cc(N=Nc2ccc(S(=O)(=O)O)cc2)ccc1O
Unit abbrev: μmoles per minute per ml
Assay result: 18.19

Quick note, Oxidation rate of azo dyes, Horseradish peroxidase for O=S(=O)(O)c1ccc2c(N=Nc3ccccc3)c(O)ccc2c1 landed at 0.08

Quick note, Oxidation rate of azo dyes, Horseradish peroxidase for COc1ccc(N=Nc2ccc(S(=O)(=O)O)cc2)cc1 landed at 0.06

Quick note, Oxidation rate of azo dyes, Horseradish peroxidase for O=S(=O)(O)c1ccc(N=Nc2cc(F)c(O)c(F)c2)cc1 landed at 0.17

Quick note, Oxidation rate of azo dyes, Horseradish peroxidase for O=S(=O)(O)c1ccc(N=Nc2ccc(O)c3ccccc23)cc1 landed at 3.91

Quick note, Oxidation rate of azo dyes, Horseradish peroxidase for CN(C)c1ccc(N=Nc2ccc(S(=O)(=O)O)cc2)cc1 landed at 0.07

Quick note, Oxidation rate of azo dyes, Horseradish peroxidase for O=S(=O)(O)c1ccc(N=Nc2ccc(O)c(Cl)c2)cc1 landed at 0.10

Quick note, Oxidation rate of azo dyes, Horseradish peroxidase for COc1cc(N=Nc2ccc(S(=O)(=O)O)cc2)cc(OC)c1O landed at 27.04

---

- Tested on: Mn(II)-peroxidase
- Test summary: Oxidation of dyes by P. chrysosporium Mn(II)-peroxidase
- Type: biochemical, Phanerochaete chrysosporium
- Condition notes: crude enzyme, conditions specific for Mn(II)-peroxidase
Readout label: Oxidation rate of azo dyes, P. chrysosporium Mn-peroxidase (μmoles per minute per ml)
Express your answer in μmoles per minute per ml, writing the number without its unit.

Molecule: CCc1ccc(O)c(N=Nc2ccc(S(=O)(=O)O)cc2)c1 [compound 9]
Unit abbrev: μmoles per minute per ml
Assay result: 0.07
//
Molecule: O=S(=O)(O)c1ccc(N=Nc2ccc(O)c3ccccc23)cc1 [compound 32]
Unit abbrev: μmoles per minute per ml
Assay result: 4.62
//
Molecule: COc1cc(N=Nc2ccc(N=Nc3ccc(S(=O)(=O)O)cc3)cc2S(=O)(=O)O)ccc1O [compound 1]
Unit abbrev: μmoles per minute per ml
Assay result: 3.06

Quick note, Oxidation rate of azo dyes, P. chrysosporium Mn-peroxidase for CCN(CC)c1ccc(N=Nc2ccc(S(=O)(=O)O)cc2)cc1 [compound 15] landed at 0.23

Quick note, Oxidation rate of azo dyes, P. chrysosporium Mn-peroxidase for COc1cc(N=Nc2ccc(S(=O)(=O)O)cc2)cc(OC)c1O [compound 4] landed at 14.33

Quick note, Oxidation rate of azo dyes, P. chrysosporium Mn-peroxidase for O=S(=O)(O)c1ccc(N=Nc2ccc(O)c(Cl)c2)cc1 [compound 13] landed at 0.26

Quick note, Oxidation rate of azo dyes, P. chrysosporium Mn-peroxidase for Nc1ccc(N=Nc2ccc(S(=O)(=O)O)cc2)cc1S(=O)(=O)O [compound 18] landed at 0.09

Quick note, Oxidation rate of azo dyes, P. chrysosporium Mn-peroxidase for COc1ccc(N=Nc2ccc(S(=O)(=O)O)cc2)cc1 [compound 16] landed at 0.00

Quick note, Oxidation rate of azo dyes, P. chrysosporium Mn-peroxidase for Nc1ccc(N=Nc2ccc(S(=O)(=O)O)cc2)cc1 [compound 30] landed at 0.59

Quick note, Oxidation rate of azo dyes, P. chrysosporium Mn-peroxidase for O=S(=O)(O)c1ccc(N=Nc2cc(F)c(O)c(F)c2)cc1 [compound 12] landed at 0.00

Quick note, Oxidation rate of azo dyes, P. chrysosporium Mn-peroxidase for Cc1cc(O)c(N=Nc2ccc(S(=O)(=O)O)cc2)cc1C [compound 7] landed at 0.11

Quick note, Oxidation rate of azo dyes, P. chrysosporium Mn-peroxidase for COc1cc(C)cc(N=Nc2ccc(S(=O)(=O)O)cc2)c1O [compound 11] landed at 1.06
